Test system: S. aureus 522
Assay procedure: MIC, hospital MRSA strain
Type: cell-based, Staphylococcus aureus
Assay setup: hospital MRSA S. aureus 522
Field: MIC. Provide a value for each of the compounds that follow.
Could you give the number and then its unit, please?

Problem: Quick one: MIC of `O=[N+]([O-])c1cc([N+]2=C(Nc3cccc(Br)c3)[S][Cu-2]23[S]C(Nc2cccc(Br)c2)=[N+]3c2ccc(Cl)c([N+](=O)[O-])c2)ccc1Cl` ?
Result: 8 µg/mL

Problem: What value of measured MIC is listed for `O=[N+]([O-])c1cc([N+]2=C(Nc3ccc(Cl)c(Cl)c3)[S][Cu-2]23[S]C(Nc2ccc(Cl)c(Cl)c2)=[N+]3c2ccc(Cl)c([N+](=O)[O-])c2)ccc1Cl` ?
Result: 16 µg/mL

Problem: Entry `O=[N+]([O-])c1cc([N+]2=C(Nc3ccccc3F)[S][Cu-2]23[S]C(Nc2ccccc2F)=[N+]3c2ccc(Cl)c([N+](=O)[O-])c2)ccc1Cl` : reported MIC = ?
Result: 8 µg/mL

---

Assign Protein Intensity, % (GSHR) to each entry below.
Tested on: Glutathione reductase, mitochondrial (GSHR_HUMAN)
Assay procedure: LC–MS proteome analysis, GSHR
Format: cell-based, Homo sapiens
Assay setup: PC3, 24 h, IC50 concentration, % of control
Report as a plain number; the unit % is understood.

Problem: Need Protein Intensity, % (GSHR) of `O=[N+]([O-])c1cc([N+]2=C(Nc3ccc(Br)cc3)[S][Cu-2]23[S]C(Nc2ccc(Br)cc2)=[N+]3c2ccc(Cl)c([N+](=O)[O-])c2)ccc1Cl` , thanks.
Result: 58.9

Problem: Which measured Protein Intensity, % (GSHR) value corresponds to `O=[N+]([O-])c1cc([N+]2=C(Nc3ccc(I)cc3)[S][Cu-2]23[S]C(Nc2ccc(I)cc2)=[N+]3c2ccc(Cl)c([N+](=O)[O-])c2)ccc1Cl` ?
Result: 68.5

Problem: Returns the measured Protein Intensity, % (GSHR) for the input molecule. Input: `O=[N+]([O-])c1cc([N+]2=C(Nc3ccccc3F)[S][Cu-2]23[S]C(Nc2ccccc2F)=[N+]3c2ccc(Cl)c([N+](=O)[O-])c2)ccc1Cl`
Result: 61.2

Problem: Consider the molecule `O=[N+]([O-])c1cc([N+]2=C(Nc3ccccc3Br)[S][Cu-2]23[S]C(Nc2ccccc2Br)=[N+]3c2ccc(Cl)c([N+](=O)[O-])c2)ccc1Cl` and give its measured Protein Intensity, % (GSHR).
Result: 71.1

---

System: Glutathione S-transferase A1 (GSTA1_HUMAN)
Assay procedure: LC–MS proteome analysis, GSTA1
Type: cell-based, Homo sapiens
Assay setup: SW620, 24 h, IC50 concentration, % of control
Measurement name: Protein Intensity, % (GSTA1) (%)
Numbers only here, please. The scale is %.

Problem: Which Protein Intensity, % (GSTA1) value belongs to O=[N+]([O-])c1cc([N+]2=C(Nc3ccc(I)cc3)[S][Cu-2]23[S]C(Nc2ccc(I)cc2)=[N+]3c2ccc(Cl)c([N+](=O)[O-])c2)ccc1Cl [Compound 8] ?
Result: 54.3

Problem: GET /values?readout=Protein Intensity, % (GSTA1)&item= O=[N+]([O-])c1cc([N+]2=C(Nc3ccc(Br)cc3)[S][Cu-2]23[S]C(Nc2ccc(Br)cc2)=[N+]3c2ccc(Cl)c([N+](=O)[O-])c2)ccc1Cl [Compound 3]
Result: 45.2

Problem: What value of Protein Intensity, % (GSTA1) has been reported for the following compound? O=[N+]([O-])c1cc([N+]2=C(Nc3ccccc3Br)[S][Cu-2]23[S]C(Nc2ccccc2Br)=[N+]3c2ccc(Cl)c([N+](=O)[O-])c2)ccc1Cl [Compound 1]
Result: 50.2

Problem: Requested read-out: Protein Intensity, % (GSTA1). Entry: O=[N+]([O-])c1cc([N+]2=C(Nc3ccccc3F)[S][Cu-2]23[S]C(Nc2ccccc2F)=[N+]3c2ccc(Cl)c([N+](=O)[O-])c2)ccc1Cl [Compound 7]
Result: 36.4

---

Give MIC for every item shown.
System: S. epidermidis 513
Assay procedure: MIC, hospital MRSE strain
Type: cell-based, Staphylococcus epidermidis
Assay setup: hospital MRSE S. epidermidis 513
Give the quantity in µg/mL, number only.

Problem: # get_value(readout='MIC', item= `O=[N+]([O-])c1cc([N+]2=C(Nc3ccc(Cl)c(Cl)c3)[S][Cu-2]23[S]C(Nc2ccc(Cl)c(Cl)c2)=[N+]3c2ccc(Cl)c([N+](=O)[O-])c2)ccc1Cl` )
Result: 16

Problem: Find the recorded MIC belonging to `O=[N+]([O-])c1cc(NC2=[N+](c3ccc(Cl)c([N+](=O)[O-])c3)[Cu-2]3([S]2)[S]C(Nc2ccc(Cl)c([N+](=O)[O-])c2)=[N+]3c2ccc(Cl)c([N+](=O)[O-])c2)ccc1Cl` and report it.
Result: 64

Problem: What value of MIC has been reported for the following compound? `O=[N+]([O-])c1cc([N+]2=C(Nc3ccccc3F)[S][Cu-2]23[S]C(Nc2ccccc2F)=[N+]3c2ccc(Cl)c([N+](=O)[O-])c2)ccc1Cl`
Result: 8

Problem: Need MIC of `O=[N+]([O-])c1cc([N+]2=C(Nc3ccc(I)cc3)[S][Cu-2]23[S]C(Nc2ccc(I)cc2)=[N+]3c2ccc(Cl)c([N+](=O)[O-])c2)ccc1Cl` , thanks.
Result: 8

Problem: Which measured MIC value corresponds to `O=[N+]([O-])c1cc([N+]2=C(Nc3cccc(Br)c3)[S][Cu-2]23[S]C(Nc2cccc(Br)c2)=[N+]3c2ccc(Cl)c([N+](=O)[O-])c2)ccc1Cl` ?
Result: 8

Problem: Param item = `O=[N+]([O-])c1cc([N+]2=C(Nc3ccccc3Br)[S][Cu-2]23[S]C(Nc2ccccc2Br)=[N+]3c2ccc(Cl)c([N+](=O)[O-])c2)ccc1Cl` ; retrieve measured MIC.
Result: 8

Problem: Which MIC value belongs to `O=[N+]([O-])c1cc([N+]2=C(Nc3ccc(F)c(Cl)c3)[S][Cu-2]23[S]C(Nc2ccc(F)c(Cl)c2)=[N+]3c2ccc(Cl)c([N+](=O)[O-])c2)ccc1Cl` ?
Result: 8

Problem: Could you share which MIC value was measured for `O=[N+]([O-])c1cc([N+]2=C(Nc3ccc(Br)cc3)[S][Cu-2]23[S]C(Nc2ccc(Br)cc2)=[N+]3c2ccc(Cl)c([N+](=O)[O-])c2)ccc1Cl` ?
Result: 4

---

System: P. aeruginosa ATCC 15442
Assay procedure: MIC, twofold serial microdilution
Type: cell-based, Pseudomonas aeruginosa
Assay setup: P. aeruginosa ATCC 15442, 18 h, 35 °C
Kindly state MIC for each of the entries shown.
Reply with just the number (in µg/mL).

Problem: For P. aeruginosa ATCC 15442, provide MIC of `O=[N+]([O-])c1cc([N+]2=C(Nc3cccc(Br)c3)[S][Cu-2]23[S]C(Nc2cccc(Br)c2)=[N+]3c2ccc(Cl)c([N+](=O)[O-])c2)ccc1Cl` please.
Result: 128

Problem: Requested read-out MIC, target or system P. aeruginosa ATCC 15442, entry `O=[N+]([O-])c1cc([N+]2=C(Nc3ccc(I)cc3)[S][Cu-2]23[S]C(Nc2ccc(I)cc2)=[N+]3c2ccc(Cl)c([N+](=O)[O-])c2)ccc1Cl`
Result: 128

Problem: Given the entry `O=[N+]([O-])c1cc(NC2=[N+](c3ccc(Cl)c([N+](=O)[O-])c3)[Cu-2]3([S]2)[S]C(Nc2ccc(Cl)c([N+](=O)[O-])c2)=[N+]3c2ccc(Cl)c([N+](=O)[O-])c2)ccc1Cl` , what MIC was observed with P. aeruginosa ATCC 15442?
Result: 128

---

Tested on: Glutathione S-transferase A1 (GSTA1_HUMAN)
Assay procedure: LC–MS proteome analysis, GSTA1
Format: cell-based, Homo sapiens
Assay setup: PC3, 24 h, IC50 concentration, % of control
Measurement name: Protein Intensity, % (GSTA1) (%)
# value in %; strip the unit string

Problem: Given the entry `O=[N+]([O-])c1cc([N+]2=C(Nc3ccc(Br)cc3)[S][Cu-2]23[S]C(Nc2ccc(Br)cc2)=[N+]3c2ccc(Cl)c([N+](=O)[O-])c2)ccc1Cl` , report its measured Protein Intensity, % (GSTA1).
Result: 70.6

Problem: Suppose we examine the compound `O=[N+]([O-])c1cc([N+]2=C(Nc3ccccc3Br)[S][Cu-2]23[S]C(Nc2ccccc2Br)=[N+]3c2ccc(Cl)c([N+](=O)[O-])c2)ccc1Cl` ; what Protein Intensity, % (GSTA1) value has been reported?
Result: 84.4

Problem: Recorded Protein Intensity, % (GSTA1) of `O=[N+]([O-])c1cc([N+]2=C(Nc3ccc(I)cc3)[S][Cu-2]23[S]C(Nc2ccc(I)cc2)=[N+]3c2ccc(Cl)c([N+](=O)[O-])c2)ccc1Cl` , please.
Result: 73.5

Problem: Endpoint output: Protein Intensity, % (GSTA1) of `O=[N+]([O-])c1cc([N+]2=C(Nc3ccccc3F)[S][Cu-2]23[S]C(Nc2ccccc2F)=[N+]3c2ccc(Cl)c([N+](=O)[O-])c2)ccc1Cl` . Value?
Result: 79.2

Source of measurements: paper PMC8584173
